Data credit: patent US20030229108A1

measurement-target: interaction between HIF-1α and p300 (His-HIF-1α / GST-p300) (Homo sapiens, UniProt Q09472+Q16665)
Construct: corresponding to the C-terminal 390 amino acids into vector pET28a; A plasmid containing the N-terminal 595 amino acids of human p300; made in house; host or cells: E. coli
Sequence (Q16665 437-826 limits assumed): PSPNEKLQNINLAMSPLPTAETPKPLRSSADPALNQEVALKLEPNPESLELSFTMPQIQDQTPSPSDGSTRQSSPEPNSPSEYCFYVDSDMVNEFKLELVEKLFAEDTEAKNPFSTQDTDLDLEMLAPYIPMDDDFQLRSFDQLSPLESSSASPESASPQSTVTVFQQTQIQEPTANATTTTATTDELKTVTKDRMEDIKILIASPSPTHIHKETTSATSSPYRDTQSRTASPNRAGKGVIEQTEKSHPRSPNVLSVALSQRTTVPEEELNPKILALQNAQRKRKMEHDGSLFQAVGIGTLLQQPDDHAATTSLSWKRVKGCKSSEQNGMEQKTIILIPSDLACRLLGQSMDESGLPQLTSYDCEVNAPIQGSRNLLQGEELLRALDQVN
Sequence (Q09472 1-595 limits assumed): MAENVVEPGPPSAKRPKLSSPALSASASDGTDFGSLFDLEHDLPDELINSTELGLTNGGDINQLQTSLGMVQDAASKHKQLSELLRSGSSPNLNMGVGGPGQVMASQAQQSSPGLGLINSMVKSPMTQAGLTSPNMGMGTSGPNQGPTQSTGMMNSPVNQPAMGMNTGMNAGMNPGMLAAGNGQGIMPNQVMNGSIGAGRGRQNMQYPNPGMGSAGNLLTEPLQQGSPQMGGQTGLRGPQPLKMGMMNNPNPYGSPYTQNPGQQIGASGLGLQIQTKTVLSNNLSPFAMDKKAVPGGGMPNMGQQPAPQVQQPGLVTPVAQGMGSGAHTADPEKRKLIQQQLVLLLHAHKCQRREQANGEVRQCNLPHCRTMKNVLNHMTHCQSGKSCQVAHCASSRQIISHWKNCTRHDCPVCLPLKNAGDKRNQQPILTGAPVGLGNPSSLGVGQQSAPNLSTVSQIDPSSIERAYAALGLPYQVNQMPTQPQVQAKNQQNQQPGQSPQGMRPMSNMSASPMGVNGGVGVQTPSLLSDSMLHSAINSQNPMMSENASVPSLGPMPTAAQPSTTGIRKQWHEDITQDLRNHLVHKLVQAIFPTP
assay-remarks: Primary assay: fluorescence-based (DELFIA) screening assay for inhibition of the HIF-1α/p300 interaction
Assay type: binding
Listed compounds paired with reported pIC50
Note on pIC50: it is the negative log10 of concentration, concentration in mol/L.

// solved cases for pIC50 follow
COc1ccc(C=C2C(=O)NC(=O)NC2=O)cc1OC : 3.60
Cc1cc(C=C2C(=O)NC(=S)NC2=O)c(C)n1-c1sc2c(c1C#N)CCCC2 : 4.37

Exercise: Specify pIC50 for O=C1NC(=O)C(=Cc2ccc(Cl)cc2Cl)C(=O)N1 and stop.
Key: 3.70

Exercise: Please indicate pIC50 recorded for O=C1C(=Cc2ccc(Cl)cc2)C(=O)N(c2ccccc2)C(=S)N1c1ccccc1
Key: 4.10

Exercise: Provide only the value of recorded pIC50 for O=C1NC(=S)NC(=O)C1=Cc1cccc2ccccc12
Key: 4.10

Exercise: Give pIC50 for O=C1NC(=S)NC(=O)C1=Cc1cn(Cc2ccccc2)c2ccccc12
Key: 4.31

Exercise: State, in one line, measured pIC50 of O=C1NC(=S)NC(=O)C1=C/C=N/Nc1ccccc1
Key: 3.74

Exercise: Indicate its recorded pIC50; the compound in question is O=C1NC(=O)C(=Cc2ccc(O)c(O)c2)C(=O)N1
Key: 3.64

Exercise: Read the entry CCN(CC)c1ccc(C=C2C(=O)NC(=O)NC2=O)cc1 and write its reported pIC50.
Key: 4.46

Exercise: Give the reported pIC50 for this compound. Cc1cc(C)cc(-n2c(C)cc(C=C3C(=O)NC(=S)NC3=O)c2C)c1
Key: 5.00

Exercise: Give the value of pIC50 reported for the following: CCOc1ccccc1C=C1C(=O)NC(=O)NC1=O
Key: 3.35

Exercise: Give pIC50 for the following compound: Cc1cc(C)c(C=C2C(=O)NC(=S)NC2=O)[nH]1
Key: 4.35

Exercise: Identify pIC50 associated with the compound O=C1NC(=S)N(c2ccc(F)cc2)C(=O)/C1=C/c1ccc2c(c1)OCO2
Key: 5.52

Exercise: Could you please provide reported pIC50 for CN(C)c1ccc(C=C2C(=O)N(c3ccccc3)C(=S)N(c3ccccc3)C2=O)cc1[N+](=O)[O-] ? Thanks!
Key: 4.40

Exercise: Write down pIC50 measured for item Cc1cc(C=C2C(=O)NC(=S)NC2=O)c(C)n1-c1ccccc1
Key: 3.80

Exercise: Recall and state the measured pIC50 for CCOc1ccc(C=C2C(=O)NC(=O)NC2=O)cc1 .
Key: 3.76

Exercise: Tell me its pIC50 given O=C1NC(=S)NC(=O)C1=Cc1ccc([N+](=O)[O-])s1 as the entry.
Key: 4.70

Exercise: Annotate the compound O=C1NC(=O)C(=Cc2ccc(Cl)c(Cl)c2)C(=O)N1 with its measured pIC50.
Key: 3.65

Exercise: For the compound COc1cc(C=C2C(=O)NC(=O)NC2=O)ccc1O , give its reported pIC50.
Key: 3.52

Exercise: Look up and report measured pIC50 for this entry: O=C1NC(=S)NC(=O)C1=Cc1ccc[nH]1
Key: 4.70

Exercise: Please report pIC50 for the following compound: O=C1NC(=S)N(c2ccc(Cl)cc2)C(=O)/C1=C/C=C/c1ccco1
Key: 4.10

Exercise: Quick one: give measured pIC50 for O=C1NC(=O)C(=Cc2cccc(OCc3ccccc3)c2)C(=O)N1
Key: 3.90

Exercise: Give me measured pIC50, please, for this compound: O=C1NC(=S)N(c2ccc(F)cc2)C(=O)/C1=C/c1ccc(-c2ccc(Cl)c(C(=O)O)c2)o1
Key: 4.40
